# Test system: CASOB (Sicklepod)
# protocolDescription: Postemergence herbicidal evaluation
# Assay type: in vivo, Cassia obtusifolia
# particulars: postemergence, rate 0.0156 kg/ha
testReadout: Herbicidal rating CASOB
Reply: number alone, nothing else.

Query string: For `Cn1c(C(F)(F)F)cc(=O)n(-c2cc(N=C3SCC(=O)N3Cc3ccc(F)cc3)c(Cl)cc2F)c1=O` , what is its reported Herbicidal rating CASOB?
Result string: 2.0

Query string: Dear colleague, I am looking for the recorded Herbicidal rating CASOB of the following compound: `Cn1c(C(F)(F)F)cc(=O)n(-c2cc(N=C3SCC(=O)N3Cc3ccc(C(F)(F)F)cc3)c(Cl)cc2F)c1=O`
Result string: 0.0

Query string: Entry `Cn1c(C(F)(F)F)cc(=O)n(-c2cc(N=C3SCC(=O)N3Cc3cccnc3)c(Cl)cc2F)c1=O` : reported Herbicidal rating CASOB = ?
Result string: 1.0

Query string: Fill in the blank: the reported Herbicidal rating CASOB of `Cn1c(C(F)(F)F)cc(=O)n(-c2cc(N=C3SCC(=O)N3CC(=O)OC3CCCC3)c(Cl)cc2F)c1=O` is ____.
Result string: 3.0

* * *

# Tested on: CYPIR (Rice Flatsedge)
# protocolDescription: Preemergence weed control under flooded paddy conditions
# Type: in vivo, Cyperus iria
# particulars: 0.1250 kg/ha, rated 3-4 weeks after treatment
So I've got a bunch of molecules here, and I need their CYPIR herbicidal effect rating values.
// print number alone

Query string: State the recorded CYPIR herbicidal effect rating for this entry: C=CCN1C(=O)C(CC(=O)OC)SC1=Nc1cc(-n2c(=O)cc(C(F)(F)F)n(C)c2=O)c(F)cc1Cl (stereo not drawn)
Result string: 2.0

Query string: Please report the recorded CYPIR herbicidal effect rating for `CCOC(=O)[C@H](Cc1ccccc1)N1C(=O)CSC1=Nc1cc(-n2c(=O)cc(C(F)(F)F)n(C)c2=O)c(F)cc1Cl` .
Result string: 7.0

Query string: What CYPIR herbicidal effect rating value was documented for this molecule, `C#CCOC(=O)CN1C(=O)CSC1=Nc1cc(-n2c(=O)cc(C(F)(F)F)n(C)c2=O)c(F)cc1Cl` ?
Result string: 9.0

* * *

# Test system: GLXMAW (Soybean, Williams)
# protocolDescription: Postemergence herbicidal evaluation
# Assay type: in vivo, Glycine max, (L.) Merr. cv Williams
# particulars: postemergence, rate 0.0313 kg/ha
satisfied means recorded Herbicidal rating GLXMAW is 6 or above; not satisfied means it is below 6.

Query string: Check this compound for Herbicidal rating GLXMAW at or above 6: Cn1c(C(F)(F)F)cc(=O)n(-c2cc(N=C3SCC(=O)N3C3CCC3)c(Cl)cc2F)c1=O [Compound 168]
Result string: satisfied

Query string: Record CC(C)COC(=O)CN1C(=O)CSC1=Nc1cc(-n2c(=O)cc(C(F)(F)F)n(C)c2=O)c(F)cc1Cl [Compound 121] ; criterion: Herbicidal rating GLXMAW no lower than 6. Met?
Result string: satisfied

Query string: In plain terms: is recorded Herbicidal rating GLXMAW at least 6 for CN1C(=O)C(CC(=O)NS(=O)(=O)c2ccccc2)SC1=Nc1cc(-n2c(=O)cc(C(F)(F)F)n(C)c2=O)c(F)cc1Cl (centres unmarked) [Compound 102] ?
Result string: not satisfied

Query string: Determine whether this compound has Herbicidal rating GLXMAW no lower than 6: Cn1c(C(F)(F)F)cc(=O)n(-c2cc(N=C3SCC(=O)N3Cc3ccncc3)c(Cl)cc2F)c1=O [Compound 133]
Result string: not satisfied

Query string: Please indicate if the recorded Herbicidal rating GLXMAW for Cn1c(C(F)(F)F)cc(=O)n(-c2cc(N=C3SCC(=O)N3Cc3cccnc3)c(Cl)cc2F)c1=O [Compound 132] meets or exceeds 6.
Result string: not satisfied

Query string: Item Cn1c(C(F)(F)F)cc(=O)n(-c2cc(N=C3SCC(=O)N3Cc3ccc(Cl)c(Cl)c3)c(Cl)cc2F)c1=O [Compound 144] with Herbicidal rating GLXMAW of 6 or above?
Result string: not satisfied

* * *

# Test system: ABUTH (Velvetleaf)
# protocolDescription: Preemergence herbicidal evaluation
# Type: in vivo, Abutilon theophrasti
# particulars: rate 0.1250 kg/ha; rated 4-5 weeks after treatment
Would you kindly list Preemergence herbicidal rating ABUTH for each of these molecules?
No unit in the answer, only the number.

Query string: So what does the record say about Preemergence herbicidal rating ABUTH for COC(=O)C(C)OC(=O)CN1C(=O)CSC1=Nc1cc(-n2c(=O)cc(C(F)(F)F)n(C)c2=O)c(F)cc1Cl (stereo not drawn) [Compound 116] ?
Result string: 9.0

Query string: Field request: Preemergence herbicidal rating ABUTH | item: C[C@H](C(=O)O)N1C(=O)CSC1=Nc1cc(-n2c(=O)cc(C(F)(F)F)n(C)c2=O)c(F)cc1Cl [Compound 70]
Result string: 6.0

Query string: Recorded Preemergence herbicidal rating ABUTH of Cc1ccccc1CN1C(=O)CSC1=Nc1cc(-n2c(=O)cc(C(F)(F)F)n(C)c2=O)c(F)cc1Cl [Compound 129] , please.
Result string: 9.0

* * *

# Tested on: ABUTH (Velvetleaf)
# protocolDescription: Postemergence herbicidal evaluation
# Format: in vivo, Abutilon theophrasti
# particulars: postemergence, rate 0.0315 kg/ha
# Description: In the tests, seedling plants are grown in jiffy flats for about two weeks. The test compounds are dispersed in 50/50 acetone/water mixtures containing 0.5% TWEEN®20, a polyoxyethylene sorbitan monolaurate surfactant of Atlas Chemical Industries, in sufficient quantities to provide the equivalent of about 0.0156 kg to 0.500 kg per hectare of active compound when applied to the plants through a spray nozzle operating at 40 psi for a predetermined time. […]
testReadout: ABUTH herbicidal rating
I only need the number, thanks.

Query string: Would you mind telling me what ABUTH herbicidal rating value was observed for `COC(=O)[C@@H](Cc1ccccc1)N1C(=O)CSC1=Nc1cc(-n2c(=O)cc(C(F)(F)F)n(C)c2=O)c(F)cc1Cl` ?
Result string: 9.0

Query string: For `CC(C)C[C@@H](C(=O)O)N1C(=O)CSC1=Nc1cc(-n2c(=O)cc(C(F)(F)F)n(C)c2=O)c(F)cc1Cl` , what is its reported ABUTH herbicidal rating?
Result string: 9.0

Query string: // query ABUTH herbicidal rating value for entry `C[C@H](C(=O)O)N1C(=O)CSC1=Nc1cc(-n2c(=O)cc(C(F)(F)F)n(C)c2=O)c(F)cc1Cl`
Result string: 6.0

Query string: # get_value(readout='ABUTH herbicidal rating', item= `CCOC(=O)CN1C(=O)C(=Cc2ccccc2)SC1=Nc1cc(-n2c(=O)cc(C(F)(F)F)n(C)c2=O)c(F)cc1Cl` )
Result string: 9.0

* * *

Provide the reported herbicidal effect rating, SAGPY of each item.
# Tested on: SAGPY (Arrowhead (Pygmaea))
# protocolDescription: Preemergence weed control under flooded paddy conditions
# Type: in vivo, Sagittaria pygmaea
# particulars: 0.2500 kg/ha, rated 3-4 weeks after treatment
Give your answer as a number; write no unit.

Query string: What measured herbicidal effect rating, SAGPY goes with CCOC(=O)CN1C(=O)C(Br)SC1=Nc1cc(-n2c(=O)cc(C(F)(F)F)n(C)c2=O)c(F)cc1Cl (stereo not shown) ?
Result string: 0.0

Query string: Any idea what herbicidal effect rating, SAGPY was measured for `CN(C)c1ccc(CN2C(=O)CSC2=Nc2cc(-n3c(=O)cc(C(F)(F)F)n(C)c3=O)c(F)cc2Cl)cc1` ?
Result string: 3.0

Query string: Recorded herbicidal effect rating, SAGPY of `Cc1ccc(CN2C(=O)CSC2=Nc2cc(-n3c(=O)cc(C(F)(F)F)n(C)c3=O)c(F)cc2Cl)cc1Cl` , please.
Result string: 3.0

Query string: Any idea what its herbicidal effect rating, SAGPY is? The molecule is `Cn1c(C(F)(F)F)cc(=O)n(-c2cc(N=C3SCC(=O)N3Cc3cccc(Cl)c3)c(Cl)cc2F)c1=O`
Result string: 3.0

* * *

# System: AMBEL (Ragweed, Common)
# protocolDescription: Preemergence herbicidal evaluation
# Type: in vivo, Ambrosia artemisifolia
# particulars: rate 0.0313 kg/ha; rated 4-5 weeks after treatment
testReadout: AMBEL preemergence herbicidal rating
Give your answer as a number; write no unit.

Query string: Quick check: AMBEL preemergence herbicidal rating of `CCOC(=O)CN1C(=O)C2(CC2)SC1=Nc1cc(-n2c(=O)cc(C(F)(F)F)n(C)c2=O)c(F)cc1Cl` ?
Result string: 1.0

Query string: Please give the measured AMBEL preemergence herbicidal rating for this compound: `CN(C)N1C(=O)CSC1=Nc1cc(-n2c(=O)cc(C(F)(F)F)n(C)c2=O)c(F)cc1Cl`
Result string: 0.0

Query string: Record request: AMBEL preemergence herbicidal rating value, item `CCOC(=O)CN1C(=O)CSC1=Nc1cc(-n2c(=O)cc(C(F)(F)F)n(C)c2=O)c(F)cc1Cl`
Result string: 4.5

Query string: Sample `CCOC(=O)/C=C1/S/C(=N/c2cc(-n3c(=O)cc(C(F)(F)F)n(C)c3=O)c(F)cc2Cl)N(CC(=O)OCC)C1=O` — what was its AMBEL preemergence herbicidal rating?
Result string: 0.0

Query string: I am curious: what AMBEL preemergence herbicidal rating value has been reported for `C=CCN1C(=O)CSC1=Nc1cc(N2C(=O)C3=C(CCCC3)C2=O)c(F)cc1Cl` ?
Result string: 0.0
